The following compounds are shown together with reported selectivity ratio values.
Protocol Notes: Selectivity index, ratio of CC50 for human Huh5-2 cells to EC50 for Hepatitis C virus
Format: toxicity, cell-based, Huh-5-2
Study Conditions: read-out: Ratio CC50/EC50

Worked cases, selectivity ratio given:
> print(dat)
                                 mol.smiles           quantity  obs.value
1  CC(=O)OC[C@H]1O[C@@H](n2c(SCc3cc4cc(C)ccc4oc3=O)nc3cncnc32)[C@H](OC(C)=O)[C@@H]1OC(C)=O  selectivity ratio        2.1
2  CC(=O)OC[C@H]1O[C@@H](n2c(SCc3cc4cc(Br)cc(Br)c4oc3=O)nc3cncnc32)[C@H](OC(C)=O)[C@@H]1OC(C)=O  selectivity ratio        1.2
3  COc1cccc2cc(CSc3nc4cncnc4n3[C@@H]3O[C@H](CO)[C@@H]4OC(C)(C)O[C@@H]43)c(=O)oc12  selectivity ratio        5.2
4  COc1cccc2cc(CSc3nc4cncnc4n3[C@@H]3O[C@H](CO)[C@@H](O)[C@H]3O)c(=O)oc12  selectivity ratio          5
5  Cc1ccc2oc(=O)c(CSc3nc4cncnc4n3[C@@H]3O[C@H](CO)[C@@H](O)[C@H]3O)cc2c1  selectivity ratio        5.1
6  CC1(C)O[C@@H]2[C@H](O1)[C@H](n1c(SCc3cc4ccccc4oc3=O)nc3cncnc31)O[C@@H]2CO  selectivity ratio        3.2
7  COc1cccc2cc(CSc3nc4cncnc4n3[C@@H]3O[C@H](COC(C)=O)[C@@H](OC(C)=O)[C@H]3OC(C)=O)c(=O)oc12  selectivity ratio        3.3
8  COc1cccc2cc(CSc3nc4cncnc4[nH]3)c(=O)oc12  selectivity ratio        4.8

Q. Sample "CC(=O)OC[C@H]1O[C@@H](n2c(SCc3cc4cc(Cl)ccc4oc3=O)nc3cncnc32)[C@H](OC(C)=O)[C@@H]1OC(C)=O" — what was its selectivity ratio?
A. 2.4

Q. Moving on to the next compound: "O=c1oc2c(Br)cc(Br)cc2cc1CSc1nc2cncnc2n1[C@@H]1O[C@H](CO)[C@@H](O)[C@H]1O"
A. 6.1

Q. Moving on to the next compound: "Nc1ncnc2c1nc(SCc1cc3ccccc3oc1=O)n2[C@@H]1O[C@H](CO)[C@@H](O)[C@H]1O"
A. 1.7

Q. Moving on to the next compound: "CC(=O)OC[C@H]1O[C@@H](n2c(SCc3cc4cc(Br)ccc4oc3=O)nc3cncnc32)[C@H](OC(C)=O)[C@@H]1OC(C)=O"
A. 1.4

Q. Moving on to the next compound: "COc1cccc2cc(CSc3nc4c(N)ncnc4n3[C@@H]3O[C@H](CO)[C@@H](O)[C@H]3O)c(=O)oc12"
A. > 2.4

Q. Moving on to the next compound: "COc1cccc2cc(CSc3nc4cncnc4n3[C@@H]3O[C@H](COC(C)=O)[C@@H](O)[C@H]3O)c(=O)oc12"
A. 1.9

Q. Moving on to the next compound: "CC(=O)OC[C@H]1O[C@@H](n2c(SCc3cc4cc(F)ccc4oc3=O)nc3cncnc32)[C@H](O)[C@@H]1O"
A. 2.3
